Where do these numbers come from? They come from ChEMBL document CHEMBL5226324.

biological target: Translocator protein (Rattus norvegicus); assay: Displacement of [3H]PK11195 from TSPO receptor in rat brain cortex membrane incubated for 120 mins by liquid scintillation spectrometer method
Sequence (P16257 whole entry, looked up): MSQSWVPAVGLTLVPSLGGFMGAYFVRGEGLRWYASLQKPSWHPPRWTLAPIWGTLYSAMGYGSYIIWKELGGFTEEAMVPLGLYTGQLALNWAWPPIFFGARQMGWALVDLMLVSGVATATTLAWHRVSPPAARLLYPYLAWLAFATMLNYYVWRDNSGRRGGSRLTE
pIC50: −log10 of the molar value.
Quick list: pIC50 per entry.

[
  {
    "molecule": "CCCCN1Cc2c(nc3ccccc3c2-c2ccccc2F)C1=O",
    "reading_qualifier": "<",
    "pIC50": 5.00
  },
  {
    "molecule": "CN(Cc1ccccc1)C(=O)c1nc2ccccc2c2c1CCOc1ccccc1-2",
    "reading_qualifier": "=",
    "pIC50": 8.00
  },
  {
    "molecule": "CCCN(CCC)C(=O)CC1c2nc3ccccc3cc2C(=O)N1c1ccccc1 (stereo not given)",
    "reading_qualifier": "<",
    "pIC50": 6.00
  },
  {
    "molecule": "CCCN(CCC)C(=O)Cc1c(-c2ccc(Cl)cc2)nc2ccc(Cl)cn12",
    "reading_qualifier": "=",
    "pIC50": 9.30
  },
  {
    "molecule": "CCCCN1Cc2c(nc3ccccc3c2-c2ccccc2)C1=O",
    "reading_qualifier": "<",
    "pIC50": 5.00
  }
]
